kon listing for selected binders.
Target: T1, SdrF N1N2N3 (52-679), His-tagged recombinant A domain of S. epidermidis SdrF (Staphylococcus epidermidis (K28 genomic …, UniProt Q9KI14 53-678))
T1 construct: expressed in E. coli; also called SdrF A domain
T1 sequence: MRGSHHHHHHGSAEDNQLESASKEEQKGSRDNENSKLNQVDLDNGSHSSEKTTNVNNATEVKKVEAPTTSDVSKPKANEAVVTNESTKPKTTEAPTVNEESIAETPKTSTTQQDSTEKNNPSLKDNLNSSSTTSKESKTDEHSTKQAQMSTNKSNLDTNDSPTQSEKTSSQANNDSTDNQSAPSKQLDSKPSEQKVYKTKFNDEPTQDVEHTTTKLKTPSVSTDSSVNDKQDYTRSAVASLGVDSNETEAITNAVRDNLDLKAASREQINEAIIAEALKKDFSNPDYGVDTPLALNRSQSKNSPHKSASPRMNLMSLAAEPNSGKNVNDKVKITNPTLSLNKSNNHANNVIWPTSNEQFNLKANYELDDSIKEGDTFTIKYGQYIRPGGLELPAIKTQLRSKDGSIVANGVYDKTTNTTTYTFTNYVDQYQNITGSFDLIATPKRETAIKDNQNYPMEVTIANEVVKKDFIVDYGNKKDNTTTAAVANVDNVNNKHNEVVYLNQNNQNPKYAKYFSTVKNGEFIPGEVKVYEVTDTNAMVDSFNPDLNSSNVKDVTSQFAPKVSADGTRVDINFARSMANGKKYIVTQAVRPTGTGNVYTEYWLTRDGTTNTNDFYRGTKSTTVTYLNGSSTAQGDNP
Assay: Biacore 3000, ligand capture of mAb, SdrF (N1N2N3) in flow
The figure you give is taken to be in M⁻¹ s⁻¹; do not add the unit.

INSERT INTO results (binder, scale_unit, measurement) VALUES
  ('Humanized 108-36 (antibody, V domains shown, N-linked carbohydrate chain on the asparagine at position 30 of the variable heavy chain, Humanized (veneered) variable regions with ''the appropriate light or heavy chain constant region'', expressed in NSO cells; also called Hu108-36) VH: QVTLRESGPGILKPSQTLSLTCTFSGFSLNTSGMGVTWIRQPSGKGLEWLANIYWDDDKRYNPSLKSRLTISKANSRNQVFLKITSVDPVDTATYYCTRPNYLGTVYWYFDVWGQGTMVTVSS VL: EIVLTQSPATMSASPGERVTMSCSASSSVSYMYWYQQKPGQSPRVLIYDTSNLASGVPSRFSGSGSGTSYSLTISSMEPEDAATYYCQQWNGYPPTFGGGTKLEVK', 'M⁻¹ s⁻¹', 140000),
  ('murine anti-SdrF monoclonal antibody 110-15 (antibody, V domains shown, Mouse hybridoma antibody (fusion F110); also called Murine 110-15; 110-15VL-Mouse/110-15VH-Mouse) VH: EVQLVESGGGLVKPGGSLKLSCAASGFAFSSYDMSWVRQTPEKRLEWVAYISSGGGITYYPDTVKGRFTISRDNAKNTLYVQMSSLKSEDTAIYYCTRHDRDSWFAYWGQGTLVTVSA VL: QIVLTQSPAIMSASPGEEGTMTCSASSSVRYMYWYRQKPGSSPRLLIYDTSNLASGVPVRFSGSGSGTSYSLTISRMEAEDAATYYCQQWSSYPPTFGGGTKLEMK', 'M⁻¹ s⁻¹', 210000);

Next:
Ask: Consider the binder Humanized 108-1 (antibody, V domains shown, Humanized (veneered) variable regions spliced into plasmids with 'the appropriate light or heavy chain constant region', expressed in NSO cells) VH: QVQLVQSGAEVVKPGASVKLSCKASGFNIKDTYIHWVKQRPGQGLEWIGRIDPANGNTHYDSQFQGKATITADTSTSTAYLQLSSLRSEDTAVYYCTRRVGYAMDYWGQGTTVTVSS VL: DIVMTQSQKFMSTSVGDRVTITCKASQDVNTALAWYQQKPGQSPKLLIYSASYRYTGVPSRFSGSGSGTDFTFTISSVQAEDLAVYYCQQHYSTPPYTFGGGTKLEIK . State its measured kon.
Reply: 94000
